- ASSAY_NOTES: AUC in rat at 3 mg/kg, po
- Format: ADME, organism-based
- SETTINGS: in vivo
READOUT_KIND: AUC (ng·h/mL)

# INPUT_SMILES, ASSAY_VALUE
measured = [
    ("COc1ccccc1[C@@H]1C(C(=O)C(C)C)=C([O-])C(=O)N1c1ccc(-c2ccsc2)cc1.[Na+]", 48400),
]

* * *

- ASSAY_NOTES: Total clearance in rat at 1 mg/kg, iv
- Format: ADME, organism-based
- SETTINGS: in vivo

# INPUT_SMILES, clearance [mL/min/kg]
measured = [
    ("COc1ccccc1[C@@H]1C(C(=O)C(C)C)=C([O-])C(=O)N1c1ccc(-c2ccsc2)cc1.[Na+]", 0.39),
]
